The origin of these recorded values is ChEMBL document CHEMBL3351642.

As shown below, each of these compounds has a reported IC50 value.
molecular target: Phosphatidylinositol 4,5-bisphosphate 3-kinase catalytic subunit alpha isoform (Homo sapiens, UniProt P42336); test: Inhibition of PI3Kalpha (unknown origin) using PIP2/PS as substrate preincubated for 15 mins before substrate addition by luciferase-based luminescence assay
Sequence (P42336 whole entry, canonical isoform): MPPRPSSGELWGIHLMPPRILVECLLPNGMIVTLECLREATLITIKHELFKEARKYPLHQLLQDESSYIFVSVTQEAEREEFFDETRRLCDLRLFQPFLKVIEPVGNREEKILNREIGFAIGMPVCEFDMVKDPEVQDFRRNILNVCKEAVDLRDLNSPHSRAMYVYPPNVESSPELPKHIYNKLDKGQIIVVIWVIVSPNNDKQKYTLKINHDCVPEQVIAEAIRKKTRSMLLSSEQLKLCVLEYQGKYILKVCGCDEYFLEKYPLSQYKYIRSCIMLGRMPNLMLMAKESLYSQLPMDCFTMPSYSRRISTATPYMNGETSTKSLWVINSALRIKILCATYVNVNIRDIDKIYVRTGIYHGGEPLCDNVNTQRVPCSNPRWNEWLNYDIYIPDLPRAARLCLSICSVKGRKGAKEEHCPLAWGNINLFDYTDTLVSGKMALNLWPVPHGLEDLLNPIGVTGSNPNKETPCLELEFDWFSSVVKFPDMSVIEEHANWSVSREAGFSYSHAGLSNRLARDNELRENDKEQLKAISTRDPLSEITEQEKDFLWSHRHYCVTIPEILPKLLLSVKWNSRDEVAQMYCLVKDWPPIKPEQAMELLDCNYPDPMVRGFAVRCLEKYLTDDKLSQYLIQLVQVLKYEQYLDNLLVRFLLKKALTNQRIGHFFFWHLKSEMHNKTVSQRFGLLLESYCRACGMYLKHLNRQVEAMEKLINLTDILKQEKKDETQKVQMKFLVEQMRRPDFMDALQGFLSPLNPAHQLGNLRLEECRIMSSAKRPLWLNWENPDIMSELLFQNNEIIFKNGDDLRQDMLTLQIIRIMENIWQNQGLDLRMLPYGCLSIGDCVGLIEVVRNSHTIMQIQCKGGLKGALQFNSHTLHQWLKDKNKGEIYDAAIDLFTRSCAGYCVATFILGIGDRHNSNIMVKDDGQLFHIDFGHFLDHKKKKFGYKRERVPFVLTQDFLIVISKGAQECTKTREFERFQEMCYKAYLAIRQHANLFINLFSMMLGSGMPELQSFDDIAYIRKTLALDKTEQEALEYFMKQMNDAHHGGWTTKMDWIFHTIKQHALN
Expressed in µM, but write only the number.

Would you please look over these solved cases?
- smiles-code: "Cc1nc(N)nc2ncc(-c3cnc4[nH]ccc4c3)cc12"
  unit-label: "µM"
  IC50: 0.038
- smiles-code: "COc1ncc(-c2cnc3nc(N)nc(C)c3c2)cc1F"
  unit-label: "µM"
  IC50: 0.117
- smiles-code: "COc1ncc(-c2cnc3nc(N)nc(C)c3c2)cc1NS(C)(=O)=O"
  unit-label: "µM"
  IC50: 0.145
- smiles-code: "COc1ncc(-c2cnc3nc(N)nc(C)c3c2)cc1NS(=O)(=O)c1ccc(C(F)(F)F)cc1"
  unit-label: "µM"
  IC50: 0.00841

-- ask Record request: IC50 value, item "CCCCS(=O)(=O)Nc1cc(-c2cnc3nc(N)nc(C)c3c2)cnc1OC"
-- reply 0.0475

-- ask Record request: IC50 value, item "Cc1nc(N)nc2ncc(-c3cnc4[nH]cc(NS(=O)(=O)c5ccc(F)cc5F)c4c3)cc12"
-- reply 0.0765

###

molecular target: Phosphatidylinositol 4,5-bisphosphate 3-kinase catalytic subunit alpha isoform (Homo sapiens); experiment: Inhibition of PI3Kalpha (unknown origin) using PIP2/PS as substrate preincubated for 15 mins before substrate addition by luciferase-based luminescence assay
As shown below, each of these compounds has a reported IC50 value.

-- ask Record request: IC50 value, item "COc1ncc(-c2cnc3nc(N)nc(C)c3c2)cc1NC(=O)C(F)(F)F"
-- reply > 1000 nM

-- ask Record request: IC50 value, item "COc1ncc(-c2cnc3nc(N)nc(C)c3c2)cc1NC(=O)c1ccc(F)cc1F"
-- reply > 1000 nM

-- ask Record request: IC50 value, item "COc1ncc(-c2cnc3nc(N)nc(C)c3c2)cc1NC(=O)Nc1ccc(F)cc1F"
-- reply > 1000 nM
